Each entry below carries its recorded MCC at 72 h.
MEASUREMENT_NOTES: Cytotoxicity against MDCK cells assessed as alteration in cell morphology after 72 hrs
Type: cell-based, Canis lupus familiaris
RUN_PARAMETERS: dog

COMPOUND: N=C(N)N1CC2C3CCC(C4CC34)C2C1 (stereo unspecified)
VALUE_OPERATOR: =
MCC at 72 h / µM: 100

COMPOUND: N=C(N)N1CC2C3C=CC(C4CC34)C2C1 (stereo unspecified)
VALUE_OPERATOR: =
MCC at 72 h / µM: 100

COMPOUND: C1CC2C1C1CCC2C2CNCC12 (stereo unspecified)
VALUE_OPERATOR: =
MCC at 72 h / µM: 4

COMPOUND: NC12CC3CC(CC(C3)C1)C2
VALUE_OPERATOR: ≥
MCC at 72 h / µM: 500

COMPOUND: CC12CC34CN(C(=N)N)CC35CC1(C)C(C)(C5)C2(C)C4 (stereo unspecified)
VALUE_OPERATOR: ≥
MCC at 72 h / µM: 4

COMPOUND: C1=CC2C3CC3C1C1CN(C3CCNCC3)CC21 (stereo unspecified)
VALUE_OPERATOR: =
MCC at 72 h / µM: 100

These entries and their values trace back to ChEMBL document CHEMBL3286248.
